target or system: ADA C75 (P00813) (Homo sapiens, UniProt P00813)
Sequence (P00813 whole entry): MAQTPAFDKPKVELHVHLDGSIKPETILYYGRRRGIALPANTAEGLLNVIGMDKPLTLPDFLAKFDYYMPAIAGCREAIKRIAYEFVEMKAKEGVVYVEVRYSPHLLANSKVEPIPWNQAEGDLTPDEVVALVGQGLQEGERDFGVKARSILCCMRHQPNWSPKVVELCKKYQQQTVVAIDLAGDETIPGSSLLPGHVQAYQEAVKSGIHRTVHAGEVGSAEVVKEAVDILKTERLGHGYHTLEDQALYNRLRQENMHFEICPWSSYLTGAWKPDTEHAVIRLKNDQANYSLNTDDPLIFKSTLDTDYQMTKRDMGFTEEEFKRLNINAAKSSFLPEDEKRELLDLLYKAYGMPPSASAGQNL
method description: Competitive isoTOP-ABPP, cell lysates
Assay type: binding
condition description: 500 μm in-vitro ramos
Consider the cut-off 1. If the recorded isoTOP-ABPP ratio (reactivity profile), P00813_C75 is strictly smaller, the label is t; if not, the label is f.

Strictly below 1 in isoTOP-ABPP ratio (reactivity profile), P00813_C75? O=C(CCl)N1CCC(C(O)(c2ccccc2)c2ccccc2)CC1
f

Determine if N#C/C(=C\c1cc(C(F)(F)F)cc(C(F)(F)F)c1)C(N)=O shows isoTOP-ABPP ratio (reactivity profile), P00813_C75 strictly lower than 1.
f

I wonder whether O=C(CCl)NC12CC3CC(CC(C3)C1)C2 has isoTOP-ABPP ratio (reactivity profile), P00813_C75 below 1. Can you tell?
f

# strict comparison: is reported isoTOP-ABPP ratio (reactivity profile), P00813_C75 < 1? input = C=CC(=O)N(Cc1cccnc1)c1ccc(Oc2ccccc2)c(C(F)(F)F)c1
f

Consider the molecule O=C(CCl)N1CCOCC1 . Is its isoTOP-ABPP ratio (reactivity profile), P00813_C75 strictly less than 1?
f

hey, is isoTOP-ABPP ratio (reactivity profile), P00813_C75 for O=C(/C=C/c1ccccc1)Nc1cc(C(F)(F)F)cc(C(F)(F)F)c1 lower than 1 or not?
t

Hi there! Is isoTOP-ABPP ratio (reactivity profile), P00813_C75 for COc1ccccc1OCCNC(=O)CCl below 1, do you know?
t

Confirm or reject: isoTOP-ABPP ratio (reactivity profile), P00813_C75 of CC(Br)C(=O)Nc1cc(C(F)(F)F)cc(C(F)(F)F)c1 (stereo not drawn) lies strictly below 1
f

---

Exercise: for every item that follows, state its recorded isoTOP-ABPP ratio (reactivity profile), Q00535_C157.
target or system: CDK5 C157 (Q00535) (Homo sapiens)
Sequence (Q00535 whole entry): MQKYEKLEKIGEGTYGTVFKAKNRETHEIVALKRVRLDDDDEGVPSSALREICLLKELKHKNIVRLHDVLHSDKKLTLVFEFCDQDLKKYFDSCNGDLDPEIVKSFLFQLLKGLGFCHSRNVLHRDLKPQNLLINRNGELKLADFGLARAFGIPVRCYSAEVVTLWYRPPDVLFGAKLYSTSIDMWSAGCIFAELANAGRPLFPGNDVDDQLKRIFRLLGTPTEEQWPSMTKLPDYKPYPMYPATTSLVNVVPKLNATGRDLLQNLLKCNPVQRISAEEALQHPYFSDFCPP
method description: Competitive isoTOP-ABPP, cell lysates
Assay type: binding
condition description: 500 μm in-vitro ramos

Give the measured isoTOP-ABPP ratio (reactivity profile), Q00535_C157 for O=C(CCl)N1CCOCC1
0.9

Quickly give me recorded isoTOP-ABPP ratio (reactivity profile), Q00535_C157 for COc1ccccc1OCCNC(=O)CCl
1.0

Consider the compound O=C(/C=C/c1ccccc1)Nc1cc(C(F)(F)F)cc(C(F)(F)F)c1 . State its measured isoTOP-ABPP ratio (reactivity profile), Q00535_C157.
0.9

// Input: O=C(CCl)N1CCC(C(O)(c2ccccc2)c2ccccc2)CC1 . Output its isoTOP-ABPP ratio (reactivity profile), Q00535_C157 only.
2.0

Complete the entry with isoTOP-ABPP ratio (reactivity profile), Q00535_C157 for N#C/C(=C\c1cc(C(F)(F)F)cc(C(F)(F)F)c1)C(N)=O
2.8

Recall and state the measured isoTOP-ABPP ratio (reactivity profile), Q00535_C157 for CC(C)CCOCCNC(=O)CCl .
1.0

---

target or system: cysteines in MDA-MB-231 and Ramos cells (Homo sapiens)
Sequence (P19447 whole entry, the tested form may be a part): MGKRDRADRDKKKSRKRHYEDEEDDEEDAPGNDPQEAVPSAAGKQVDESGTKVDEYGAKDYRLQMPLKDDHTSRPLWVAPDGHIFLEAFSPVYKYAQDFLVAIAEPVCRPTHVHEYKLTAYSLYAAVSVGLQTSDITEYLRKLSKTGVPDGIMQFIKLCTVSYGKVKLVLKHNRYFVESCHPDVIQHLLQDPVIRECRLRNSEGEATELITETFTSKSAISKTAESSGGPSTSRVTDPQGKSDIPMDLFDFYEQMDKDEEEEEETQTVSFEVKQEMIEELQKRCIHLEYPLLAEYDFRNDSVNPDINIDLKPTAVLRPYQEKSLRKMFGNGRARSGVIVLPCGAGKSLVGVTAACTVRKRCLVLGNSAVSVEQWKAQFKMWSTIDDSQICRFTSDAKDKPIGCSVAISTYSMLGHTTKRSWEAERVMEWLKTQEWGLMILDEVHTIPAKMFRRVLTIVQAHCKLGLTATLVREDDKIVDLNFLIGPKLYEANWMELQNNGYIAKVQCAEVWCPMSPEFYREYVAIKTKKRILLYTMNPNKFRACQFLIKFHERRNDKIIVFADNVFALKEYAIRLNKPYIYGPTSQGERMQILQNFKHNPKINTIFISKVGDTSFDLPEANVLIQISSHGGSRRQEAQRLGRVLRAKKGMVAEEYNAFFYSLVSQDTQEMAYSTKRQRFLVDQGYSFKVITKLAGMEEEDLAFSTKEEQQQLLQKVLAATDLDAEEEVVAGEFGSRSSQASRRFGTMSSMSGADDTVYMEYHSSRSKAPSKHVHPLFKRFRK
method description: Competitive isoTOP-ABPP in situ (fragment-treated cells)
Type: cell-based
condition description: 200 μM, insitu, 231
Field: isoTOP-ABPP ratio P19447_C342. Provide a value for each of the molecules that follow.
API note: the answer field is a bare number with no unit suffix.

Give cysteines in MDA-MB-231 and Ramos cells (Homo sapiens) isoTOP-ABPP ratio P19447_C342 for the following molecule: CC1CCc2ccccc2N1C(=O)CCl (stereo not shown)
5.9

Enter isoTOP-ABPP ratio P19447_C342 (test system cysteines in MDA-MB-231 and Ramos cells (Homo sapiens)) for Cc1ccc(C=C(C#N)C(=O)NCCN2CCOCC2)cc1
0.7

Provide the reported isoTOP-ABPP ratio P19447_C342 (system: cysteines in MDA-MB-231 and Ramos cells (Homo sapiens)) for C=CC(=O)Nc1cc(F)c(N2CCN(C(=O)OC(C)(C)C)CC2)c(F)c1
1.0

Give measured isoTOP-ABPP ratio P19447_C342 for O=C(CCl)N1CCN(S(=O)(=O)c2ccccc2F)CC1 (cysteines in MDA-MB-231 and Ramos cells (Homo sapiens)).
20.0

Lab note: record isoTOP-ABPP ratio P19447_C342 of O=C(CCl)NC(=O)NC12CC3CC(CC(C3)C1)C2 tested on cysteines in MDA-MB-231 and Ramos cells (Homo sapiens).
6.7

Report isoTOP-ABPP ratio P19447_C342 from cysteines in MDA-MB-231 and Ramos cells (Homo sapiens) testing of O=C(CCl)NCCc1c[nH]c2ccccc12
1.1

Answer with isoTOP-ABPP ratio P19447_C342 of O=C(CCl)NC12CC3CC(CC(C3)C1)C2 measured for cysteines in MDA-MB-231 and Ramos cells (Homo sapiens).
2.0

// data source = patent US10670605B2
